The values you see were collected from patent US9682141B2.

compounds and their reported pIC50
Molecular target: PI3K γ (Homo sapiens (Human))
Sequence (P48736 whole entry): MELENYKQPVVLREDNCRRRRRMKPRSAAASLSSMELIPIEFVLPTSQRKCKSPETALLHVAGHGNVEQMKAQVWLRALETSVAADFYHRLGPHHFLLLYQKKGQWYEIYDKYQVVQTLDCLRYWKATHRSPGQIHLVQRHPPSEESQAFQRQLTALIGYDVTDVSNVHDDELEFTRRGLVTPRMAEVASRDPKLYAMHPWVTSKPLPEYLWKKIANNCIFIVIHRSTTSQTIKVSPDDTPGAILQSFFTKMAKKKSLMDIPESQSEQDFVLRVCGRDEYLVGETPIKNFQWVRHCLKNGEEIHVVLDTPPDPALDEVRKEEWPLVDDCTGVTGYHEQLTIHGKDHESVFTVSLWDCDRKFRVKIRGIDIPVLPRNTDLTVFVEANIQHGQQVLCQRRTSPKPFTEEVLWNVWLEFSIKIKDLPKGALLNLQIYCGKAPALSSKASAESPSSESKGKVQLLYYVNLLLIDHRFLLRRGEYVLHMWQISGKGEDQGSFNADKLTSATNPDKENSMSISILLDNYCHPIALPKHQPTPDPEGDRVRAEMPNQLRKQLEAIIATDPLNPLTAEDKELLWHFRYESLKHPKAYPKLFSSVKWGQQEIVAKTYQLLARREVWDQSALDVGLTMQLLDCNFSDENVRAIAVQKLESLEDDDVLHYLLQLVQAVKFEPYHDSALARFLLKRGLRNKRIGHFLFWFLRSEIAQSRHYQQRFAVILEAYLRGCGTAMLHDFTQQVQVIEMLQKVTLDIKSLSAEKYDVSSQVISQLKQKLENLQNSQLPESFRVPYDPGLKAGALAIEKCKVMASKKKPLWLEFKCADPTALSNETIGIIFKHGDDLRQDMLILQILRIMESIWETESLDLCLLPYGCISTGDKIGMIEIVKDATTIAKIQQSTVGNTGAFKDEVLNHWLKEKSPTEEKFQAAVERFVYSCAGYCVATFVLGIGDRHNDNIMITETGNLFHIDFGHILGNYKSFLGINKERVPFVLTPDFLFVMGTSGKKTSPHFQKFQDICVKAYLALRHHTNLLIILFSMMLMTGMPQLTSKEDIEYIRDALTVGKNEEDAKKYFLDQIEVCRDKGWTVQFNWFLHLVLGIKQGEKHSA
Assay: PI 3-Kinase (human) HTRF assay, p110γ
Assay type: biochemical
Details: read-out: PI3K γ IC50
pIC50: −log10 of the molar value.

// known answers, use as guide
CN1CCN(C(=O)c2cnc3ccc(-c4ccc5oc(N)nc5c4)cn23)CC1    > 5.00
Nc1nc2cc(-c3ccc4ncc(C5=CCOCC5)nc4n3)ccc2o1    > 7.00
Cc1nc2ccc(-c3ccc4oc(N)nc4c3)cn2c1C(=O)N1CCN(C)CC1    < 5.00
Nc1nc2cc(-c3ccc4ncc(-c5ccnc(N6CCOCC6)c5)n4c3)ccc2o1    > 7.00
CN1CCC(N(C)C(=O)c2cnc3ccc(-c4ccc5oc(N)nc5c4)cn23)CC1    < 5.00

Please supply the value of reported pIC50 for the item Nc1nc2cc(-c3ccc4ncc(N5CCOCC5)nc4c3)ccc2o1
> 7.00

Please supply the value of reported pIC50 for the item Nc1nc2cccc(-c3ccc4nccc(-c5ccncc5)c4c3)c2o1
> 6.00

Please supply the value of reported pIC50 for the item CN1CCN(c2ncnc3ccc(-c4ccc5oc(N)nc5c4)cc23)CC1
> 7.00
